# assayed_system: CBX8 ChD Y39F (Homo sapiens, UniProt Q9HC52, Y39F)
# Construct: 6His (N); TEV site (ENLYFQG), read by me from the printed insert DNA (N); host or cells: E. coli (BL21 CodonPlus RIL or Rosetta 2), pET-28a(+)
# Sequence (Q9HC52 11-69 Y39F limits assumed): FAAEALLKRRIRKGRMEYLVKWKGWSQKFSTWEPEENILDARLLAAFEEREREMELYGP
# experiment_description: Time-dependent fluorescence polarization displacement assay, CBX8 Y39F
# Type: binding
# condition_set: IC50 at 20 h, Figure 5d; CBX8 Y39F 2 µM, probe 100 nM
property_measured: pIC50
The value called pIC50 is obtained by taking minus log10 of the concentration in mol/L.

Test system CBX8 ChD Y39F (Homo sapiens, UniProt Q9HC52, Y39F); read-out pIC50; what value for `CC[C@H](C)[C@H](NC(=O)[C@@H](NC(=O)c1ccc(Oc2ccccc2)cc1)C1CCCC1)C(=O)N[C@@H](CCCCN(CC)CCCCCCN1CCN=CC1=O)C(=O)N[C@@H](CO)C(N)=O` ?
4.96
